Target: PAR2 (HT-29 cells) (Homo sapiens, UniProt P55085)
Construct: host or cells: HT-29
Sequence (P55085 26-397): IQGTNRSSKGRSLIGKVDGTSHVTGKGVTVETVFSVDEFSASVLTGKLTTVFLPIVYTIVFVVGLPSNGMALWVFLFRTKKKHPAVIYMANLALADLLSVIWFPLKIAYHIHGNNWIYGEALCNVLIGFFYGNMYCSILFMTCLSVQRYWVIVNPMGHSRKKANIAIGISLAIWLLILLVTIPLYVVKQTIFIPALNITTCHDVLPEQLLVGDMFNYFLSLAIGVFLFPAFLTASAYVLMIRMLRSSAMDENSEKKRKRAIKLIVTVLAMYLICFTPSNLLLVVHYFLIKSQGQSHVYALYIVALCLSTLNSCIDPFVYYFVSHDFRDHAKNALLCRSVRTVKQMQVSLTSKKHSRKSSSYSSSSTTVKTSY
Test: Ca FLIPR TETRA assay, ANTAGONIST mode, activator 8 μM SLIGKV
Type: cell-based
Settings: HT-29 cells, activator 8 μM SLIGKV; maximal antagonist concentration per Method (A: 0.1, 1 or 2 μM; B: 50 μM)
experimentalReadout: IC50 (nM)

Cc1n[nH]c(C(=O)N2CCN(C(=O)c3cc4nc(C5CC6(CCC6)C5)cc(C(C)(C)C)c4o3)C(C)(C)C2)n1 | 7.3

1. CC(C)(C)c1cc(C2CCC(F)(F)CC2)nc2cc(C(=O)N3CCN(C(=O)[C@H]4CC[C@@](C)(C(=O)O)CC4)C(=O)C3(C)C)oc12
2. CC(C)(C)c1cc(-c2ccc(Cl)c(F)c2)nc2cc(C(=O)N3CCN(c4cccnc4)CC3(C)C)oc12
Lab note: record which item had the higher IC50, 1 or 2 . Lab log: write the label of the selected item as the result. 2
(2: 33 nM, 1: 6.7 nM)

----------
Molecular target: PAR2 (HT-29 cells) (Homo sapiens)
Construct: host or cells: HT-29
Sequence (P55085 26-397): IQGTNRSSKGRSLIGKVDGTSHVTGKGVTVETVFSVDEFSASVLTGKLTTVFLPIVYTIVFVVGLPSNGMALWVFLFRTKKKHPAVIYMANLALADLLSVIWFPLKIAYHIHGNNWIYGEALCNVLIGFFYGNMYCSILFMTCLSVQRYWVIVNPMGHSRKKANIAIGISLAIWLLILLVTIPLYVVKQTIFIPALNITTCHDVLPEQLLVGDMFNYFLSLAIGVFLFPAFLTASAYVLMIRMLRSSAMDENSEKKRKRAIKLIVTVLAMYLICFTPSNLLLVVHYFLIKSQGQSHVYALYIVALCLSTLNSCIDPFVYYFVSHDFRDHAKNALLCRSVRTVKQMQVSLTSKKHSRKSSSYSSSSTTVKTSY
Assay: Ca FLIPR TETRA assay, ANTAGONIST mode, activator 3.1 U/mL trypsin
Format: cell-based
Conditions: HT-29 cells, activator 3.1 U/mL trypsin; maximal antagonist concentration per Method (A: 0.1, 1 or 2 μM; B: 50 μM)
pIC50: −log10 of the molar value.
experimentalReadout: pIC50

Sample answers from the record:
CO[C@@H](C(=O)N1CCN(C(=O)c2cc3nc(-c4ccc(F)cc4)cc(C(C)C)c3o2)C[C@@H]1C)c1ccccc1 | 7.54
CC(C)(C)c1cc(-c2ccc(Cl)c(F)c2)nc2cc(C(=O)N3CCN(C(=O)C4CCC(C(=O)O)O4)CC3(C)C)oc12 (centres unmarked) | 7.89
CC[C@H](O)C(=O)N1CCN(C(=O)c2cc3nc(-c4ccc(F)cc4)cc(C4(C)CC4)c3o2)C(C)(C)C1 | 7.31

a. CC(C)c1cc(-c2ccc(F)cc2)nc2cc(C(=O)N3CCN(C(=O)C(C)(C)F)CC3(C)C)oc12
b. CC(C)(C)c1cc(C2CC3(CCC3)C2)nc2cc(C(=O)N3CCN(C(=O)[C@H]4C[C@@](C)(O)C4)CC3(C)C)oc12
c. CCc1cc(-c2ccc(F)cc2)nc2cc(C(=O)N3CCN(C(=O)C(C)(C)O)CC3(C)C)oc12
d. CC(C)c1cc(-c2ccc(F)cc2)nc2sc(C(=O)N3CCNC(=O)C3(C)C)nc12
Reorder the items by pIC50, least to greatest. // rank by listing labels in the order requested c, d, a, b
(c: 6.72, d: 7.17, a: 8.17, b: 9.15)
